Data provenance is patent US4487708A.

In this section we review reported % O2 Removed values for a set of compounds.
test: room temperature oxygen scavenging test (flask with dissolved oxygen probe); settings: Table 8; mu-amine combined with hydroquinone, 103 ppm each; 60 seconds, 23-25 °C; final pH 9.3-10.5
readout name: % O2 Removed (%)

| compound | quantitative result |
| --- | --- |
| NCCO | 75 |
| NCCN | 85 |
| CCC(C)N (stereo not drawn) | 74 |
| NCCNCCNCCN | 89 |
| CN(C)CCCN | 76 |
| CC(O)CNCC(C)O (stereo not drawn) | 86 |
